Target: T1, CAPRIN-1 protein expressed on the membrane surface of human cancer cells (human, UniProt Q14444 2-709)
T1 sequence (looked up): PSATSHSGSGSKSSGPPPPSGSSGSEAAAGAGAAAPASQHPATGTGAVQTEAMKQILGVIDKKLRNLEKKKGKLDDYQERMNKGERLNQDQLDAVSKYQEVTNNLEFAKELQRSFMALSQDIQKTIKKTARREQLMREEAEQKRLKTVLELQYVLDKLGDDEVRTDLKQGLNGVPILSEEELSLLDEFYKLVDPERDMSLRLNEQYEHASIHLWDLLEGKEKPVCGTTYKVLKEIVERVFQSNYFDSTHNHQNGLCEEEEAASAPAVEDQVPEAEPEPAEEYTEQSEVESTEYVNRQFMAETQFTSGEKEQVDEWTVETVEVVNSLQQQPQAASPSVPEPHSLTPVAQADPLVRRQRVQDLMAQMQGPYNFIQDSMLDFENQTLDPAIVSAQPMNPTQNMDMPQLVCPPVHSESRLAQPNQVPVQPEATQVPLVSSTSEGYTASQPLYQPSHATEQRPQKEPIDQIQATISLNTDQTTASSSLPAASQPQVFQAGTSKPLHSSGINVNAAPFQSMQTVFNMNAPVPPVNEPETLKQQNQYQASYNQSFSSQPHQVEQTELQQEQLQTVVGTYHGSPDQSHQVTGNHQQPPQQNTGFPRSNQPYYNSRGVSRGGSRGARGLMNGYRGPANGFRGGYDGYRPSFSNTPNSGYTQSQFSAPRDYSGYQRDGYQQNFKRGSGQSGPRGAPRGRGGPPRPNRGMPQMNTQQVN
Assay: cell-based or functional assay
Measured ADCC cytotoxic activity (51Cr release) on 22Rv1 accompanies every entry in the list below.
assay readout: ADCC cytotoxic activity (51Cr release) on 22Rv1

binder	result
humanized antibody #0 (antibody, V domains shown) VH: EVQLVESGGGLVQPGGSLRLSCAASGFSLSSHSLGWVRQAPGKGLEWIGDIRSGGSAYYANWAKGRFTISRDNSKNTLYLQMNSLRAEDTAVYFCTRTNGPSDLTNRLDLWGQGTLVTVSS VL: AIQMTQSPSSLSASVGDRVTINCQASQSLYNNENLAWFQQKPGKAPKRLIYGASTLASGVSSRFSGSGSGTDFTLTISSLQPEDFAIYYCLGEFSCGSADCFAFGGGTKVEIK	≥ 38%
humanized antibody #3 (antibody, V domains shown) VH: EVQLVESGGGLVQPGGSLRLSCAASGFSLSSHSLGWVRQAPGKGLEWIGDIRSGGSAYYANWAKGRFTISRDNSKNTLYLQMNSLRAEDTAVYYCTRTNGPSDLTNRLDLWGQGTLVTVSS VL: EQVLTQSPSSLSASVGDRVTINCQASQSLYNNENLAWFQQKPGKVPKRLIYGASTLASGVSSRFSGSGSGTEFTLTISNLQPEDFAIYYCLGEFSCGSADCFAFGGGTKVEIK	≥ 45%
